Reported TGI by item:
- Tested on: MOLT-4 leukemia
- experimentSummary: NCI tumour cell line growth inhibition, 48 h

compound	TGI
CCOC(=O)C(NC(=O)c1ccc(N=NN(C)C)cc1)C(C)C (centres undefined)	> 100 µM
C/C(=N\Nc1nc2ccccc2s1)c1cccnn1	> 100 µM
COc1ccc(CCCCl)c(C2=NCCc3ccccc32)c1	> 100 µM
Nc1n[nH]c2ccccc12	> 100 µM
NNC(=O)c1cccc2c1Oc1ccccc1S2	> 100 µM
CCCS(=O)(=O)c1nc(NC2CC2)cc(-c2ccc3c(ccn3C3CC(C)(C)NC(C)(C)C3)c2)n1	4.57 µM
O=[N+]([O-])c1ccc2nc3c(nc2c1)-c1c2ccccc2cc2cccc-3c12	31.7 µM
N/C(CSCCSC/C(N)=N/O)=N\O	> 100 µM
COc1ccc(-c2cc(-c3cc(Cl)ccc3Cl)nc3nc(=S)[nH]c(N)c23)cc1	> 100 µM
CNC(=O)c1cn(C[C@H](F)CCc2ccc(NC(=O)Cc3cc(OC4CC(F)(F)C4)cc(C)n3)nn2)nn1	> 100 µM
O=C(c1ccccc1)[C@H]1Nc2cnccc2C2c3ccccc3CC21 (some centres undefined)	23.1 µM
c1ccc([P+](Cc2csnn2)(c2ccccc2)c2ccccc2)cc1	> 100 µM
C=C1CC=CC(C)(C)C1C/C=C(\C)C(O)CBr (centres undefined)	> 100 µM
COC(=O)c1sc2ncc3c(c2c1N)CC(C)CC3 (centres undefined)	> 100 µM
C[C@@H]1C(=O)CC2(O)[C@@]13C[C@@H](OC(=O)[C@@H]3O)[C@@H](C)[C@@]21COC1=O (some centres undefined)	> 100 µM
CS(=O)(=O)Nc1ccc(-c2ccc3c(NC(=O)C4CC4)n[nH]c3c2)cc1	> 25 µM
COc1cc(-c2c3c(cc4c2OCO4)[C@@H](Nc2ccc4c(c2)Cc2cc(N[C@@H]5c6cc7c(cc6C(c6cc(OC)c(O)c(OC)c6)[C@H]6C(=O)OC[C@H]56)OCO7)ccc2-4)[C@H]2COC(=O)[C@@H]2C3)cc(OC)c1O (some centres undefined)	> 100 µM
NCCN1CCN(c2nccc(-c3ccc4ccccc4c3)n2)CC1	4.44 µM
CNc1ccc2c(c1)Cc1ccccc1-2	98.7 µM
COC(=O)C(CCSC)NC(=O)CSc1nnc(COc2ccc(Cl)cc2)n1-c1ccccc1 (centres undefined)	43 µM
O=c1cc(-c2ccccc2F)[nH]c2cc3c(cc12)OCO3	> 18.3 µM
O=C(CN=C(CN(c1ccccc1)c1ccccc1)Oc1c(Cl)cc(Cl)cc1Cl)n1cnc2ccccc21	> 100 µM
COc1cc2c(cc1OCCCOc1cc3c(cc1OC)C(=O)N1CCC[C@H]1CN3)N=C[C@@H]1CCCN1C2=O	0.148 µM
COc1ccc(/C(C)=N/NC(=S)N(C)C)c(O)c1	> 100 µM
O=C1N[C@@H](O)[C@@H]2ON=C(c3ccccc3)[C@H]12	> 100 µM
COc1ccc(NC2=C(Br)C(=O)C(C)=C(C)C2=O)cc1	> 100 µM
CCOC(=O)c1csc(NC(=O)CCCC#N)n1	> 100 µM
CCC1C(=O)OCc2c1cc1n(c2=O)CCC12OCCO2 (centres undefined)	> 100 µM
CNc1nc(NC2CCCC2)nc(Sc2ccc(OC)cc2)n1	> 10 µM
